- Study System: Cytochrome P450 3A4 (Homo sapiens) (UniProt P08684)
- Sequence (P08684 whole entry, looked up): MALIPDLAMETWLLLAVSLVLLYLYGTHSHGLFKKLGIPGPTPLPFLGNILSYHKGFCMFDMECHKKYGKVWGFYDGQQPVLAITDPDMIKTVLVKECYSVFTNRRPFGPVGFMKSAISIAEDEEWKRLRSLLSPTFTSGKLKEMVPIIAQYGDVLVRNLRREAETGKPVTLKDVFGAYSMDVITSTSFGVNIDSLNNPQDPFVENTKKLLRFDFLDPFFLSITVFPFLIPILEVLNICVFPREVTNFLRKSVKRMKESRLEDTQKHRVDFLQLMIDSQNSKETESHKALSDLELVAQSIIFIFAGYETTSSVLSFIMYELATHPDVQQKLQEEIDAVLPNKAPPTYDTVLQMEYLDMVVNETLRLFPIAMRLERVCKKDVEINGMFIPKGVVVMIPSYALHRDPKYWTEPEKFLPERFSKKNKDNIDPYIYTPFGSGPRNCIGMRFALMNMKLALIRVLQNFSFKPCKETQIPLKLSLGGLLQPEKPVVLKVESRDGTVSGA
- Protocol Summary: qHTS Assay for Inhibitors and Substrates of Cytochrome P450 3A4 (AID 884); further: on the % scale 0 is the no-effect control and ±100 the full control effect; nearly all actives have a fitted effect of over 50% in size
- Test Conditions: recombinant CYP3A4, Luciferin-PPXE luminescence; series mostly up to 57.1 µM
Records with an inconclusive call do not appear. Active and inactive are the calls of the source. The call rests on the fitted dose curve; in most records, active means well fitted inhibition curve with a large enough effect; inconclusive means small, poorly fitted or top-dose-only effect; inactive means no such curve, though single readings can be large or run the other way.
Measurement Name: activity change, negative = inhibition

O=S(=O)(O)c1cc(S(=O)(=O)O)c2c(N=Nc3cccc4ccccc34)c(O)ccc2c1 | -5.78% [at 11.4 µM] (inactive)
COc1ccc(CCCC(=O)O)c(C)c1 | -0.798% [at 11.4 µM] (inactive)
C[C@H]1CCCC=CC2C[C@H](OC(=O)CN(C)C)C[C@@H]2[C@@H](O)/C=C\C(=O)O1 (stereo partly drawn) | 229% [at 11.4 µM] (inactive)

###

- Protocol Summary: NFAT Signaling Pathway (AID 444);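 further: carbachol stimulus at about its EC50 of 1 µM final; on the % scale 0 is the no-effect control and ±100 the full control effect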
- Test Conditions: Jurkat NFAT-bla M1, carbachol, beta-lactamase ratio, 5 h; at 7.69 µM (top of the series) unless noted
Inconclusive results are not listed.
Measurement Name: activity change, negative = inhibition (%)

NS(=O)(=O)c1ccc(NC(=O)Nc2cccc3ccccc23)cc1 | 12.6
NS(=O)(=O)c1ccc(NC2(C(=O)O)CCCC2)cc1 | 2.12
COc1ccc(/C=C(\C#N)C(N)=O)c(OC)c1 | 17.1
CN(CCO)Cc1ncccc1O | 14.9
O=C1OC(c2ccc(O)c(-c3ccccc3)c2)(c2ccc(O)c(-c3ccccc3)c2)c2c(Cl)c(Cl)c(Cl)c(Cl)c21 | 19.3
O=[N+]([O-])c1ccc2ncccc2c1CCc1c([N+](=O)[O-])ccc2ncccc12 | 17.8
CC(=O)Nc1nc2ncc(C=O)nc2c(=O)[nH]1 | 17.3
Cc1c(S(=O)(=O)O)ccc(N=Nc2c(O)c(C(=O)O)cc3ccccc23)c1Cl | -10.7
N=C(N)SCc1cccc2c(=O)cc(-c3ccccc3)oc12 | -23
Cc1ccc(S(=O)(=O)Oc2cc(S(=O)(=O)O)cc3cc(S(=O)(=O)O)cc(N)c23)cc1 | 1.61
N#C/C(=C\Nc1ccccn1)C(=O)C1CC1 | 5.1
CCC[C@H](Sc1nc(N)nc2nc[nH]c12)C(=O)O | -19.8
CN(C)CCNc1ccccn1 | 12.6
O=[N+]([O-])c1ccc(NN=C2c3ccccc3Cc3ccccc32)c([N+](=O)[O-])c1 | -1.66
Cn1c(=O)c2[nH]c(SCc3ccccn3)nc2n(C)c1=S | 13
C=C1CCO[C@@]2([C@H](O)[C@@](C)(O)CO)NC(=O)[C@]1(O)NC2=O | -4.59
COc1cc2c(cc1O)[C@@H](c1cc(O)c(O)c(OC)c1)[C@@](O)(C(=O)O)[C@@H](CO)[C@@H]2O | -5.96
Clc1ccc(C=Nc2ccc3c(c2)Cc2ccccc2-3)c(Cl)c1 | 23.1
COc1ccc([C@@H](Nc2ccccn2)c2cc(C(C)(C)C)cc(C(C)(C)C)c2O)cc1 | -8.5
Nc1nc(Cc2ccccc2)nc(Cc2ccccc2)c1-c1ccccc1 | 11.3
NC[C@H]1O[C@@H](n2cnc3c(=O)[nH]c(N)nc32)[C@@H](O)[C@@H]1O | 5.35
Cn1c(=S)c2[nH]c(SCc3cccnc3)nc2n(C)c1=O | 0.274
